- Test system: LXRb homodimer (NR concentration 270 nM)
- test: PBM binding z-score (relative to random genomic background probes); higher = stronger binding; sequences stand for … in GC…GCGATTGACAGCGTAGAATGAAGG
Class field: derived from PBM binding z-score; ranges bottom range (below -1), center range (-1 to below 0.3), top range (0.3 or more)

Solved cases (5 shown):
{"columns": ["sequence-chain", "assayed-system", "answer-label"],
 "data": [
  ["AGAGACAGGTGAGTGAAGGTAACTCAGCTGGACG", "LXRb homodimer (NR concentration 270 nM)", "top range"],
  ["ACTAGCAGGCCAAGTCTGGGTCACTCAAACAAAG", "LXRb homodimer (NR concentration 270 nM)", "bottom range"],
  ["TCTAGTTAGTCAAAGGTCACACACTCGAAATGCG", "LXRb homodimer (NR concentration 270 nM)", "top range"],
  ["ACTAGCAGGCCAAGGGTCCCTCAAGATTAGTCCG", "LXRb homodimer (NR concentration 270 nM)", "bottom range"],
  ["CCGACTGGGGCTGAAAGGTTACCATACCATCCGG", "LXRb homodimer (NR concentration 270 nM)", "bottom range"]
]}

input: Lab note: which band did `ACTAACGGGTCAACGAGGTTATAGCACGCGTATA` land in?
output: top range

input: Another sequence to check: `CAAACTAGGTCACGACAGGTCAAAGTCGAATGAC`
output: top range

input: Next: `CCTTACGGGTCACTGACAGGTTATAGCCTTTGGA`
output: center range

input: # repeat for `CCTACTGGGCCATCAGGTCATTGATATCAACGTT`
output: center range

input: What do we get for `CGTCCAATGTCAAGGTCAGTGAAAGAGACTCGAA` ?
output: center range

src = the supplement of paper PMC6555819
